tested on: V-C8 + BRCA2 (BRCA2-proficient hamster cells); assay: normalised cell viability (fraction of plate median); higher = more viable cells (less toxic); details: treatment time: 6 days; 5 µM
Counter-ions that a name gives are not always drawn. The full ranking holds about 1,300 compounds; the median of “normalised cell viability” is about 1, and the lowest 2% start at about 0.15. This is one part of a sample in which the lowest values are shown more often than they occur.
endpoint-name: normalised cell viability
Answers are plain numbers.

// below: answered compounds
Prompt line: Please report the recorded normalised cell viability for Cc1cc(/C=C/c2ccc3cc(N(C)C)ccc3[n+]2C)c(C)n1-c1ccccc1 [Pyrvinium pamoate] .
Response line: 0.171

Prompt line: And for CN1C2CCCC1CC(NC(=O)c1nn(C)c3ccccc13)C2 (stereo unspecified) ?
Response line: 1.01

Parameters: items (list). Returns: normalised cell viability for each item.
1. CS(=O)(=O)c1ccc(C2=C(c3ccccc3)C(=O)OC2)cc1
2. CCC(=O)OCC(=O)[C@@]1(OC(=O)CC)[C@@H](C)C[C@H]2[C@@H]3CCC4=CC(=O)C=C[C@]4(C)[C@@]3(Cl)[C@@H](O)C[C@@]21C [Beclomethasone dipropionate]
3. CC(C)COCC(CN(Cc1ccccc1)c1ccccc1)N1CCCC1 (stereo unspecified) [Bepridil hydrochloride]
4. CC(=O)CC(c1ccc([N+](=O)[O-])cc1)c1c(O)c2ccccc2oc1=O (stereo unspecified)
5. CC1(C)S[C@@H]2[C@H](NC(=O)[C@H](C(=O)O)c3ccsc3)C(=O)N2[C@H]1C(=O)O [Ticarcillin sodium]
6. CCN(CC)CCOC(=O)C1(c2ccc([N+](=O)[O-])cc2)CCCC1 [Nitrocaramiphen hydrochloride]
7. Nc1ccc(C(=O)NCC(=O)O)cc1
8. O=C(O)CCc1nc(-c2ccccc2)c(-c2ccccc2)o1

Response line:
1. 1.02
2. 0.987
3. 0.828
4. 0.979
5. 1.04
6. 1.04
7. 1.11
8. 1.12

For every item below, please supply its normalised cell viability.
1. Cc1ccc(Cl)c(Nc2ccccc2C(=O)O)c1Cl [Meclofenamic acid sodium salt monohydrate]
2. CC(C)(C)NC[C@H](O)c1ccc(O)c(CO)c1 [Levalbuterol hydrochloride]

Response line:
[1.08, 1]

###

system: V-C8 + BRCA2 (BRCA2-proficient hamster cells); experiment: normalised cell viability (fraction of plate median); higher = more viable cells (less toxic); settings: treatment time: 3 days; 5 µM
Where a name gives a salt, the structure may show the parent alone. Whole data set: some 1,300 compounds, median “normalised cell viability” near 1, cut for the lowest 2% near 0.15. What follows is part of a selection rich in the lowest values, with near analogues and random picks from the rest.
Exercise: state measured normalised cell viability for each of the compounds provided.
Give bare numbers.

Prompt line: Kindly state the measured normalised cell viability obtained for Clc1cc(Cl)c(OCC#CI)cc1Cl with V-C8 + BRCA2 (BRCA2-proficient hamster cells).
Response line: 0.278

Prompt line: How about C1CCC(C(CC2CCCCN2)C2CCCCC2)CC1 (stereo unspecified) [Perhexiline maleate] ?
Response line: 0.135

Prompt line: And the next one, Nc1ccc(C(=O)NCC(=O)O)cc1 ?
Response line: 1.04

Prompt line: Now consider NCC[C@H](O)C(=O)N[C@@H]1C[C@H](N)[C@@H](O[C@H]2O[C@H](CN)[C@@H](O)[C@H](O)[C@H]2O)[C@H](O)[C@H]1O[C@H]1O[C@H](CO)[C@@H](O)[C@H](N)[C@H]1O [Amikacin hydrate] .
Response line: 0.584

Prompt line: Lookup Cc1cc(/C=C/c2ccc3cc(N(C)C)ccc3[n+]2C)c(C)n1-c1ccccc1 [Pyrvinium pamoate]
Response line: 0.144

Lab note: each compound below needs its normalised cell viability filled in.
1. COc1cc([C@@H]2c3cc4c(cc3[C@@H](O[C@@H]3O[C@@H]5CO[C@@H](C)O[C@H]5[C@H](O)[C@H]3O)[C@H]3COC(=O)[C@H]23)OCO4)cc(OC)c1O [Etoposide]
2. CC[C@@H](CO)NCCN[C@@H](CC)CO [Ethambutol dihydrochloride]
3. COc1nc(C)nc(Cl)c1NC1=NCCN1

Response line:
1: 0.141; 2: 1.05; 3: 1.01

###

test system: V-C8 + BRCA2 (BRCA2-proficient hamster cells); assay: normalised cell viability (fraction of plate median); higher = more viable cells (less toxic); conditions: treatment time: 3 days; 5 µM
Whole data set: some 1,300 compounds, median “normalised cell viability” near 1, cut for the lowest 2% near 0.15. This is one part of a sample in which the lowest values are shown more often than they occur.
endpoint-name: normalised cell viability
Give bare numbers.

Quick one: give me normalised cell viability for each item below, same order please.
1. OC[C@H]1O[C@@H](Oc2ccc(O)cc2)[C@H](O)[C@@H](O)[C@@H]1O
2. CCOC(=O)OC(C)OC1=C(C(=O)Nc2ccccn2)N(C)S(=O)(=O)c2ccccc21 (stereo unspecified)

Response line:
1. 1.02
2. 1

###

test system: V-C8 + BRCA2 (BRCA2-proficient hamster cells); experiment: normalised cell viability (fraction of plate median); higher = more viable cells (less toxic); conditions: treatment time: 3 days; 5 µM
Counter-ions that a name gives are not always drawn. The full ranking holds about 1,300 compounds; the median of “normalised cell viability” is about 1, and the lowest 2% start at about 0.15. The full list was thinned out, with the lowest values kept by preference.
For each entry below, report its normalised cell viability value.

Example cases with answers are listed next.
Prompt line: Which measured normalised cell viability value corresponds to CC(C)NCC(O)c1ccc2ccccc2c1 (centres undefined) [Pronethalol hydrochloride] ?
Response line: 0.972

Prompt line: Lookup CC(C)(C(=O)O)c1ccc(C(O)CCCN2CCC(C(O)(c3ccccc3)c3ccccc3)CC2)cc1 (centres undefined) [Fexofenadine HCl]
Response line: 1.02

Prompt line: Similarly, CCCN(CCC)C(=O)C(CCC(=O)O)NC(=O)c1ccccc1 (centres undefined) [Proglumide] ?
Response line: 0.993

Next:
Prompt line: For CC[C@H](c1ccc(O)cc1)[C@@H](CC)c1ccc(O)cc1 , what is its reported normalised cell viability?
Response line: 0.974

###

Exercise: state measured normalised cell viability for each of the compounds provided.
tested on: V-C8 + BRCA2 (BRCA2-proficient hamster cells); test: normalised cell viability (fraction of plate median); higher = more viable cells (less toxic); settings: treatment time: 6 days; 5 µM
Structures can show the parent of a compound that is named as a salt. In all, about 1,300 compounds were measured (“normalised cell viability”: median about 1, lowest 2% from about 0.15 on). This excerpt belongs to a sample that is enriched for the lowest values.
One number for each entry.

Prompt line: // query normalised cell viability value for entry CCN1CCCC1CNC(=O)c1cc(S(=O)(=O)CC)c(N)cc1OC (stereo unspecified) [Amisulpride]
Response line: 0.991

Prompt line: Now the compound OCC(O)CN1CCN(c2ccccc2)CC1 (racemic) [Dropropizine (R,S)]
Response line: 0.958

Prompt line: And for CC(=O)c1ccc(S(=O)(=O)NC(=O)NC2CCCCC2)cc1 [Acetohexamide] ?
Response line: 1.03

Prompt line: // repeat for O=C(Oc1cccc2cccnc12)c1ccccc1 and report
Response line: 0.738

Prompt line: Thanks! And N=C(N)N/N=C/c1c(Cl)cccc1Cl [Guanabenz acetate] ?
Response line: 1.01

Others:
Prompt line: Return reported normalised cell viability; argument: CC(C)(C)NCC(O)COc1cccc2c1CCC(=O)N2 (stereo unspecified) [Carteolol hydrochloride]
Response line: 1.06

###

test system: V-C8 + BRCA2 (BRCA2-proficient hamster cells); test: normalised cell viability (fraction of plate median); higher = more viable cells (less toxic); conditions: treatment time: 6 days; 5 µM
Counter-ions that a name gives are not always drawn. In all, about 1,300 compounds were measured (“normalised cell viability”: median about 1, lowest 2% from about 0.15 on). Only a selection was taken, and the lowest values are over-represented in it overall.
endpoint-name: normalised cell viability
Answers are plain numbers.

Prompt line: Recorded normalised cell viability of CN(C)CCOc1ccc(/C(=C(/CCCl)c2ccccc2)c2ccccc2)cc1 , please.
Response line: 0.891

Prompt line: Please answer likewise for O=C1C(O)=C([C@H]2CC[C@H](c3ccc(Cl)cc3)CC2)C(=O)c2ccccc21
Response line: 0.922

Prompt line: // same read-out, input: Nc1ccn([C@@H]2O[C@H](CO)[C@@H](O)C2(F)F)c(=O)n1
Response line: 0.183

Prompt line: And then Cc1cn[nH]c1 [Fomepizole] , what is it?
Response line: 0.964

Prompt line: Another compound to check: COC(=O)Nc1nc2cc(Sc3ccccc3)ccc2[nH]1
Response line: 0.179

Consider the following items and state reported normalised cell viability for each.
1. CCCCCCC[N+](CC)(CC)CCCCc1ccc(Cl)cc1 [Clofilium tosylate]
2. NS(=O)(=O)c1cc(Cl)c(Cl)c(S(N)(=O)=O)c1 [Dichlorphenamide]
3. Clc1ccc(COC(Cn2ccnc2)c2ccc(Cl)cc2Cl)cc1 (configuration not stated) [Econazole nitrate]
4. Cc1onc(-c2ccccc2)c1C(=O)N[C@@H]1C(=O)N2[C@@H]1SC(C)(C)[C@@H]2C(=O)O [Oxacillin sodium]
5. CNC(=C[N+](=O)[O-])NCCSCc1csc(CN(C)C)n1

Response line:
[0.935, 0.961, 1.04, 0.989, 1.05]

Hi, could you look up normalised cell viability for each item in my list?
1. CC(=O)Oc1cccc2c1C(=O)c1c(OC(C)=O)cc(C(=O)O)cc1C2=O
2. Nc1ccc(S(=O)(=O)Nc2ccnn2-c2ccccc2)cc1

Response line:
1: 0.796; 2: 1.01
